Data provenance is ChEMBL document CHEMBL3621161.

Target: Neuronal acetylcholine receptor; alpha4/beta2 (Rattus norvegicus, UniProt P09483+P12390)
Sequence (P12390 whole entry, one chain of several): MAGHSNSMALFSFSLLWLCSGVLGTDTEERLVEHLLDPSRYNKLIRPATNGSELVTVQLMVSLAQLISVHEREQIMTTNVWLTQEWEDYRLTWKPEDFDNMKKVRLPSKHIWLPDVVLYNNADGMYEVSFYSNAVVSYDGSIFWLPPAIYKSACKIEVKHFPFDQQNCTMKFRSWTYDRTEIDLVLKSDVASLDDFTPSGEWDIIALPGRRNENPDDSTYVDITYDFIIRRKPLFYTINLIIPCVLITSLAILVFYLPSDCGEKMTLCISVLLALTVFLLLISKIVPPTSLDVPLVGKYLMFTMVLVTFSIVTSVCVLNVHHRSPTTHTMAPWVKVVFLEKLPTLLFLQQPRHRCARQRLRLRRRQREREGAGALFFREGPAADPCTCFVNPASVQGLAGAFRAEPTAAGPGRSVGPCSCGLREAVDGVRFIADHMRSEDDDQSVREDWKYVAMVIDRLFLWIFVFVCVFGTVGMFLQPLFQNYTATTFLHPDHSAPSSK
Test: Displacement of [3H]epibatidine from rat neuronal acetylcholine receptor subunit alpha4beta2 expressed in HEK293 cell membranes incubated for 4 hrs by scintillation counting method
Kindly apply the following: satisfied if Ki is less than 10 µM, not satisfied in every other case.

query: Is it true that Ki reported for CN(C)C(=O)OC[C@H]1C[C@H]1N (racemic) is less than 10 µM?
result: not satisfied

query: Is it true that Ki reported for `CN(C)C(=O)C1CCNCC1` is less than 10 µM?
result: not satisfied

query: Is it true that Ki reported for `CN1CCCN(C(=O)N(C)C)CC1` is less than 10 µM?
result: not satisfied

query: Is it true that Ki reported for `CCNC(=S)N1CCN(C)CC1` is less than 10 µM?
result: satisfied

query: Is it true that Ki reported for `CN(C)C(=O)N1CCCNCC1` is less than 10 µM?
result: not satisfied

query: Is it true that Ki reported for CNC(=O)OC[C@H]1C[C@H]1N(C)C (racemic) is less than 10 µM?
result: satisfied

----------
Target: Neuronal acetylcholine receptor; alpha3/beta4 (Rattus norvegicus, UniProt P04757+P12392)
Sequence (P04757 whole entry, one chain of several): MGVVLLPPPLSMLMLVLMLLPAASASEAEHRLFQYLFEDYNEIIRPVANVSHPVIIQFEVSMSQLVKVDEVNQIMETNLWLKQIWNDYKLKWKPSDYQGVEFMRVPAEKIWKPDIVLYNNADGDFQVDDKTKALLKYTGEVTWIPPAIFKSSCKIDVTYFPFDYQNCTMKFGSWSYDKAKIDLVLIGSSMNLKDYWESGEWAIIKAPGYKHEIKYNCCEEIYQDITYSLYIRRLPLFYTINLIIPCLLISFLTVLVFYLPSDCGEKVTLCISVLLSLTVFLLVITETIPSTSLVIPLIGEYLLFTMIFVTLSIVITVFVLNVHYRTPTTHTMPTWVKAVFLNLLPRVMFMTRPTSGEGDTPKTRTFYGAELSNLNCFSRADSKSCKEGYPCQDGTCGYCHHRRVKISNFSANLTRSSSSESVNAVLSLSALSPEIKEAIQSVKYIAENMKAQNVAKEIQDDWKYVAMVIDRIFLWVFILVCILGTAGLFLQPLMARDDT
Experiment: Agonist activity at rat neuronal acetylcholine receptor subunit alpha3beta4 expressed in HEK293 cells at 1 mM by FMP assay
Format: cell-based
valueType: EC50

| compound | result |
| --- | --- |
| CCNC(=S)N1CCC(N(C)C)C1 (racemic) | > 1000 µM |
| CCNC(=O)N1CCN(C)CC1 | > 1000 µM |

query: State the recorded EC50 for this entry: CNC(=S)N1CCC(N(C)C)C1 (racemic)
result: > 1000 µM

----------
Target: Neuronal acetylcholine receptor; alpha4/beta4 (Rattus norvegicus, UniProt P09483+P12392)
Sequence (P09483 whole entry): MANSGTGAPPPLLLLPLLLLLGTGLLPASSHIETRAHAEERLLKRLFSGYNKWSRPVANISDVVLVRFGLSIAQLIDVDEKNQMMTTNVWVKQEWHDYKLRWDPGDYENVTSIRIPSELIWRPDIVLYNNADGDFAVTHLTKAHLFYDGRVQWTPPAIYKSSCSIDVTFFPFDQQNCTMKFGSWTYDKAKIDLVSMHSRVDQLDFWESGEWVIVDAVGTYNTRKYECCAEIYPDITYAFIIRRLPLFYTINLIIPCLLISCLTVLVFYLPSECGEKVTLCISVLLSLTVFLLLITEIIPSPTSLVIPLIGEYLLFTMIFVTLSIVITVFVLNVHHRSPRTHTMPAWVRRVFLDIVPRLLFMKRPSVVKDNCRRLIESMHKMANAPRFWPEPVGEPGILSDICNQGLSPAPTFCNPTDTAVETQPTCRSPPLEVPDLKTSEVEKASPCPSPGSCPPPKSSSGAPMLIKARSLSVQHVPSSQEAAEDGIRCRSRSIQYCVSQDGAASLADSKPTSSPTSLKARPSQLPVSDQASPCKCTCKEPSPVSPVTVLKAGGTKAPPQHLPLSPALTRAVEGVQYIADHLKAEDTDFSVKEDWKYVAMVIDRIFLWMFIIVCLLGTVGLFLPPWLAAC
Sequence (P12392 whole entry): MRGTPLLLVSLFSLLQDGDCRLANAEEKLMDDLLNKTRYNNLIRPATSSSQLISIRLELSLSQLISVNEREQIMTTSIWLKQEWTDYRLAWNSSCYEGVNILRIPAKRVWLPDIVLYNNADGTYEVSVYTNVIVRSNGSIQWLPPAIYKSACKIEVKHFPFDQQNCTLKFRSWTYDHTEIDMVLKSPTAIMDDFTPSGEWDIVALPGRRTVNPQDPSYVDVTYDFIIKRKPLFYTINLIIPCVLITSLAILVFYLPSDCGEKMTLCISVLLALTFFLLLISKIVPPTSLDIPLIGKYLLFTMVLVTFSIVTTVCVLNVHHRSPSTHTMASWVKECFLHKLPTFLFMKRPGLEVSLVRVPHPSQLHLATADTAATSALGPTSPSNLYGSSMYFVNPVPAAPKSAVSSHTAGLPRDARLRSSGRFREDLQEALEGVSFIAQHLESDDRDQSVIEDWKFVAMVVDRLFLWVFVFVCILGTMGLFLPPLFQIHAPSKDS
Assay: Displacement of [3H]epibatidine from rat neuronal acetylcholine receptor subunit alpha4beta4 expressed in HEK293 cell membranes incubated for 4 hrs by scintillation counting method
Settings: read-out: Ki
Kindly apply the following: Y if Ki is less than 100 µM, N in every other case.

Solved entries:
| compound | testedOn | class |
| --- | --- | --- |
| CN(C)C(=O)N1CCC(N(C)C)C1 (racemic) | Neuronal acetylcholine receptor; alpha4/beta4 (Rattus norvegicus, UniProt P09483+P12392) | Y |
| CN(C)C(=O)OC[C@H]1C[C@H]1N(C)C (racemic) | Neuronal acetylcholine receptor; alpha4/beta4 (Rattus norvegicus, UniProt P09483+P12392) | Y |
| CN(C)C(=O)OC[C@H]1C[C@@H]1N(C)C (racemic) | Neuronal acetylcholine receptor; alpha4/beta4 (Rattus norvegicus, UniProt P09483+P12392) | N |
| CNC(=S)N1CCN(C)CC1 | Neuronal acetylcholine receptor; alpha4/beta4 (Rattus norvegicus, UniProt P09483+P12392) | N |
| CNC(=O)OC[C@H]1C[C@@H]1N(C)C.O=C(O)C(=O)O (racemic) | Neuronal acetylcholine receptor; alpha4/beta4 (Rattus norvegicus, UniProt P09483+P12392) | N |
| CCNC(=S)N1CCC(N(C)C)C1 (racemic) | Neuronal acetylcholine receptor; alpha4/beta4 (Rattus norvegicus, UniProt P09483+P12392) | N |
| CCNC(=O)N1CCC(N(C)C)C1 (racemic) | Neuronal acetylcholine receptor; alpha4/beta4 (Rattus norvegicus, UniProt P09483+P12392) | Y |
| CN1CCN(C(=O)N(C)C)CC1 | Neuronal acetylcholine receptor; alpha4/beta4 (Rattus norvegicus, UniProt P09483+P12392) | Y |
| CCNC(=S)N1CCN(C)CC1 | Neuronal acetylcholine receptor; alpha4/beta4 (Rattus norvegicus, UniProt P09483+P12392) | N |
| CN(C)C(=O)C1CCNCC1 | Neuronal acetylcholine receptor; alpha4/beta4 (Rattus norvegicus, UniProt P09483+P12392) | N |

query: Is it true that Ki reported for CNC(=O)OC[C@H]1C[C@H]1N(C)C (racemic) is less than 100 µM?
result: Y

query: Is it true that Ki reported for `CN1CCCN(C(=O)N(C)C)CC1` is less than 100 µM?
result: N

query: Is it true that Ki reported for `CN(C)C(=O)N1CCCNCC1` is less than 100 µM?
result: Y

----------
Measured log10 Ki, listed per entry for reference.
Target: Neuronal acetylcholine receptor; alpha3/beta4 (Rattus norvegicus, UniProt P04757+P12392)
Test: Displacement of [3H]epibatidine from rat neuronal acetylcholine receptor subunit alpha3beta4 expressed in HEK293 cell membranes incubated for 4 hrs by scintillation counting method
Settings: read-out: Ki
All values: base-10 log of Ki in µM.

Solved cases (4 shown):
| compound | valueType | result |
| --- | --- | --- |
| CN(C)C(=O)N1CCCNCC1 | log10 Ki | 2.48 |
| CN(C)C(=O)OC[C@H]1C[C@H]1N (racemic) | log10 Ki | 2.48 |
| CCNC(=O)N1CCC(N(C)C)C1 (racemic) | log10 Ki | 1.48 |
| CN1CCN(C(=O)N(C)C)CC1 | log10 Ki | 1.70 |

query: # query: log10 Ki | item CNC(=S)N1CCC(N(C)C)C1 (racemic) | system: Neuronal acetylcholine receptor; alpha3/beta4 (Rattus norvegicus, UniProt P04757+P12392)
result: 2.48

query: # query: log10 Ki | item CNC(=O)OC[C@H]1C[C@H]1N(C)C (racemic) | system: Neuronal acetylcholine receptor; alpha3/beta4 (Rattus norvegicus, UniProt P04757+P12392)
result: 1.70

query: # query: log10 Ki | item `CN1CCCN(C(=O)N(C)C)CC1` | system: Neuronal acetylcholine receptor; alpha3/beta4 (Rattus norvegicus, UniProt P04757+P12392)
result: 2.48

query: # query: log10 Ki | item CN(C)C(=O)N1CCC(N(C)C)C1 (racemic) | system: Neuronal acetylcholine receptor; alpha3/beta4 (Rattus norvegicus, UniProt P04757+P12392)
result: 0.81

query: # query: log10 Ki | item CN(C)C(=O)OC[C@H]1C[C@H]1N(C)C (racemic) | system: Neuronal acetylcholine receptor; alpha3/beta4 (Rattus norvegicus, UniProt P04757+P12392)
result: 1.15

----------
Biological target: Neuronal acetylcholine receptor; alpha3/beta4 (Rattus norvegicus, UniProt P04757+P12392)
Experiment: Displacement of [3H]epibatidine from rat neuronal acetylcholine receptor subunit alpha3beta4 expressed in HEK293 cell membranes incubated for 4 hrs by scintillation counting method
Conditions: read-out: Ki
Measured pKi, listed per entry for reference.
Field pKi (float): negative decimal logarithm of the concentration in molar.

| molecule | testedOn | result |
| --- | --- | --- |
| CCNC(=O)N1CCN(C)CC1 | Neuronal acetylcholine receptor; alpha3/beta4 (Rattus norvegicus, UniProt P04757+P12392) | 4.00 |

query: State the recorded pKi for this entry: CN(C)C(=O)OC[C@H]1C[C@@H]1N(C)C (racemic)
result: 3.00

----------
Molecular target: Neuronal acetylcholine receptor; alpha3/beta4 (Rattus norvegicus, UniProt P04757+P12392)
Assay: Agonist activity at rat neuronal acetylcholine receptor subunit alpha3beta4 expressed in HEK293 cells by FMP assay
Format: cell-based
valueType: pEC50
Field pEC50 (float): negative decimal logarithm of the concentration in molar.

Solved cases (2 shown):
| compound | pEC50 |
| --- | --- |
| CCNC(=O)N1CCC(N(C)C)C1 (racemic) | 4.00 |
| CN(C)C(=O)N1CCC(N(C)C)C1 (racemic) | 4.49 |

query: # query: pEC50 | item `CCNC(=S)N1CCN(C)CC1` | system: Neuronal acetylcholine receptor; alpha3/beta4 (Rattus norvegicus, UniProt P04757+P12392)
result: 4.00

----------
Target: Neuronal acetylcholine receptor; alpha4/beta2 (Rattus norvegicus, UniProt P09483+P12390)
Test: Displacement of [3H]epibatidine from rat neuronal acetylcholine receptor subunit alpha4beta2 expressed in HEK293 cell membranes incubated for 4 hrs by scintillation counting method
Measured pKi, listed per entry for reference.
Field pKi (float): negative decimal logarithm of the concentration in molar.

Solved cases (9 shown):
| molecule | valueType | result |
| --- | --- | --- |
| CCNC(=O)N1CCN(C)CC1 | pKi | 5.00 |
| CNC(=O)OC[C@H]1C[C@@H]1N(C)C.O=C(O)C(=O)O (racemic) | pKi | 3.52 |
| CNC(=S)N1CCN(C)CC1 | pKi | 4.72 |
| CN(C)C(=O)OC[C@H]1C[C@H]1N(C)C (racemic) | pKi | 5.82 |
| CN(C)C(=O)N1CCC(N(C)C)C1 (racemic) | pKi | 5.19 |
| CNC(=S)N1CCC(N(C)C)C1 (racemic) | pKi | 5.64 |
| CN1CCN(C(=O)N(C)C)CC1 | pKi | 4.52 |
| CCNC(=S)N1CCC(N(C)C)C1 (racemic) | pKi | 5.92 |
| CCNC(=O)N1CCC(N(C)C)C1 (racemic) | pKi | 5.24 |

Consider now this further molecule.
query: State the recorded pKi for this entry: CN(C)C(=O)OC[C@H]1C[C@@H]1N(C)C (racemic)
result: 4.00
